Origin of values: PubChem BioAssay (Tox21)

measured_target: Estrogen receptor (Homo sapiens)
measurement_description: qHTS assay to identify small molecule agonists of the estrogen receptor alpha (ER-alpha) signaling pathway (AID 743075);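 further: HEK293 GripTite cells with ER-alpha and UAS-driven beta-lactamase reporter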
applied_conditions: HEK293 ER-alpha-UAS-bla, beta-lactamase FRET ratio, 18 h; series mostly up to 70.1 µM
Activity calls are given as the source filed them. The call rests on the fitted dose curve.
# valid calls are t for active, f for inactive; nothing else

Which outcome was assigned to O=C(Nc1ccccc1)c1ccccc1I in this test? f

Now this one: CCN(CC)c1nc(C)cc(OP(=S)(OC)OC)n1 f

Now this one: CCOP(=S)(OCC)Oc1cc(-c2ccccc2)on1 f

Now this one: Nc1ccccc1Cl f

Now this one: [Cl][Sn]([Cl])([Cl])[Cl] f

Now this one: Cc1cc(C)nc(Nc2ccccc2)n1 f

Now this one: O=C(N[C@H]1CN2CCC1CC2)c1cc2ccoc2cn1 f

Now this one: O=C1OC(=O)C2C1C1(Cl)C(Cl)=C(Cl)C2(Cl)C1(Cl)Cl (centres undefined) f

Now this one: Nc1cc(Cl)ccc1O f

Now this one: COC(=O)c1c(C(F)F)nc(C(F)(F)F)c(C2=NCCS2)c1CC(C)C f

Now this one: CSc1ccc(C(=O)C(C)(C)N2CCOCC2)cc1 t

Now this one: Oc1c(Cl)cccc1Cl f

Now this one: COP(=S)(OC)Oc1ccc(S(N)(=O)=O)cc1 f

Now this one: CC(C)CP(=S)(S)CC(C)C f

###

measurement_description: qHTS assay to identify small molecule agonists of the sonic hedgehog signaling (Shh) pathway - cell viability counter screen (AID 1259366); further: nearly all actives have a fitted effect of over 50% in size
applied_conditions: NIH/3T3 Gli1-Luc viability, CellTiter-Fluor, 24 h; series mostly up to 92.4 µM
Records with an inconclusive call do not appear. Activity calls are given as the source filed them. Calls come from the whole dose curve; as a rule, active = well fitted cell-killing curve with a large enough effect in the repeat runs; inconclusive = weak or mixed curves, or effect the other way; inactive = flat fitted curve, though single readings scatter.
# valid calls are yes (1) = active, no (0) = inactive; nothing else

Which outcome was assigned to Nc1n[nH]c(N)n1 in this test? no (0)

Now this one: CCCCc1c(C)nc(NCC)[nH]c1=O no (0)

Now this one: CCCCOC(=O)c1ccccc1C(=O)O no (0)

Now this one: COc1cccc2c1cc([N+](=O)[O-])c1c(C(=O)O)cc3c(c12)OCO3 yes (1)

Now this one: CCCCP(CCCC)CCCC no (0)

Now this one: C[N+](=O)[O-] no (0)

Now this one: CCC(=O)c1ccccc1 no (0)

Now this one: CN/C(=N\[N+](=O)[O-])NCC1CCOC1 (stereo unspecified) no (0)

Now this one: CC1=C(C(=O)Nc2ccccc2)S(=O)(=O)CCO1 yes (1)

Now this one: ClC(Cl)(Cl)C(Cl)(Cl)Cl no (0)

Now this one: O=C(CCN1CC1)OCC(CO)(COC(=O)CCN1CC1)COC(=O)CCN1CC1 no (0)

Now this one: N#CC(CCc1ccc(Cl)cc1)(Cn1cncn1)c1ccccc1 (stereo unspecified) yes (1)

Now this one: CCC(=O)C(CCN(C)C)(c1ccccc1)c1ccccc1 no (0)

Now this one: CC1(C)C(=O)NC(=O)NC1=O no (0)

Now this one: CCC/C(=N\OCC)C1=C(O)CC(CC(C)SCC)CC1=O (stereo unspecified) no (0)

Now this one: O=[N+]([O-])c1cc(Cl)c(Cl)c(Cl)c1 no (0)
